Value source: paper PMC10825133

tested on: HCC70 cells; experiment: Resazurin-based cell viability assay, monotherapy drug screen; parameters: species or system human; details: Homo sapiens; HCC70; growth rate inhibition concentration at GR(c) = 0.5, 24 h; read-out: GR50 (the source's name)
Quick reference for IC50 among some compounds
Your answer should be a number followed by the unit of measure.

Example entries and their recorded answers appear below.
Test item CC(C)C[C@H](NC(=O)CNC(=O)c1cc(Cl)ccc1Cl)B1OC(=O)C(CC(=O)O)(CC(=O)O)O1 [MLN 9708, MLN-9708] ; HCC70 cells; reported IC50 was 1.2 µM

Test item CC(C)C[C@H](NC(=O)CNC(=O)c1cc(Cl)ccc1Cl)B(O)O [MLN 2238, MLN-2238] ; HCC70 cells; reported IC50 was 0.74 µM

Test item CC(C)C[C@H](NC(=O)[C@@H](NC(=O)c1cccc(-c2ccccc2)n1)[C@@H](C)O)B(O)O [Delanzomib] ; HCC70 cells; reported IC50 was 0.37 µM

The record that follows has no IC50 shown yet.
Test item COC[C@H](NC(=O)c1cnc(C)s1)C(=O)N[C@@H](COC)C(=O)N[C@@H](Cc1ccccc1)C(=O)[C@@]1(C)CO1 [Oprozomib] ; HCC70 cells; reported IC50 was 3.7 µM

###

system: MDA-MB-468 cells; assay: Resazurin-based cell viability assay, monotherapy drug screen; set-up: species or system human; details: MDA-MB-468; growth rate inhibition concentration at GR(c) = 0.5, 24 h; read-out: GR50 (the source's name)
Quick reference for IC50 among some molecules
Just the number please, in nM, no unit attached.

Example entries and their recorded answers appear below.
The molecule identified as N.N.[Cl][Pt][Cl] [Cisplatin] registered its IC50 at 7.5

The molecule identified as N.N.O=C([O-])C1(C(=O)[O-])CCC1.[Pt+2] registered its IC50 at 240

The record that follows has no IC50 shown yet.
The molecule identified as CC[C@H](C)[C@H](NC(=O)[C@H]([C@@H](C)CC)N(C)C(C)=O)C(=O)N[C@H](C(=O)N[C@@H](CC(C)C)C(=O)[C@@]1(C)CO1)[C@@H](C)O registered its IC50 at 51

###

Quick reference for GRmax among some compounds
test system: MCF-7 cells; experiment: Resazurin-based cell viability assay, monotherapy drug screen; parameters: species or system human; details: MCF-7; drug efficacy at highest tested dose (<0 cytotoxic, 0 cytostatic, >0 partial growth inhibition)
Residues, ends and D or L forms follow the SMILES beside them. *: point of attachment. Cbz = O=C(OCc1ccccc1)*
Lab note: write the figure by itself, no unit.

Example entries and their recorded answers appear below.
The compound identified as CC[C@H](C)[C@H](NC(=O)[C@H]([C@@H](C)CC)N(C)C(C)=O)C(=O)N[C@H](C(=O)N[C@@H](CC(C)C)C(=O)[C@@]1(C)CO1)[C@@H](C)O registered its GRmax at 0.42

The compound identified as CC(=O)O[C@H]1C(=O)[C@@]2(C)[C@H]([C@H](OC(=O)c3ccccc3)[C@]3(O)C[C@H](OC(=O)[C@H](O)[C@@H](NC(=O)c4ccccc4)c4ccccc4)C(C)=C1C3(C)C)[C@]1(OC(C)=O)CO[C@@H]1C[C@@H]2O registered its GRmax at −0.56

The compound identified as CC1=C(O)C(=O)C=C2C1=CC=C1[C@@]2(C)CC[C@@]2(C)[C@@H]3C[C@](C)(C(=O)O)CC[C@]3(C)CC[C@]12C registered its GRmax at −0.30

Next:
The compound identified as O=[N+]([O-])c1ccc(S(=O)(=O)N2CCN(c3ccnc4cc(Cl)ccc34)CC2)c([N+](=O)[O-])c1 registered its GRmax at 0.82

The compound identified as [NH2][Pt]1([NH2])[O]CC(=O)[O]1 registered its GRmax at −0.57

The compound identified as CC(C)C[C@@H](C=O)NC(=O)[C@H](CC(C)C)NC(=O)[C@H](CC(C)C)NC(=O)OCc1ccccc1 [MG 132, MG-132] (Cbz-Leu-Leu-Leu-aldehyde) registered its GRmax at −0.32

###

test system: MCF-7 cells; experiment: Resazurin-based cell viability assay, monotherapy drug screen; parameters: species or system human; settings: MCF-7; 24 h drug treatment; read-out: IC50
Quick reference for IC50 among some molecules
Just the number please, in nM, no unit attached.

The molecule identified as CC[C@H](C)[C@H](NC(=O)[C@H]([C@@H](C)CC)N(C)C(C)=O)C(=O)N[C@H](C(=O)N[C@@H](CC(C)C)C(=O)[C@@]1(C)CO1)[C@@H](C)O registered its IC50 at 1200

The molecule identified as O=[N+]([O-])c1ccc(S(=O)(=O)N2CCN(c3ccnc4cc(Cl)ccc34)CC2)c([N+](=O)[O-])c1 registered its IC50 at 6000

The record that follows has no IC50 shown yet.
The molecule identified as N.N.[Cl][Pt][Cl] [Cisplatin] registered its IC50 at 160

###

tested on: CAL-148 cells; assay: Resazurin-based cell viability assay, monotherapy drug screen; set-up: species or system human; details: CAL-148; drug efficacy at highest tested dose (<0 cytotoxic, 0 cytostatic, >0 partial growth inhibition)
Quick reference for GRmax among some molecules
Lab note: write the figure by itself, no unit.

Test item COc1cccc2c1C(=O)c1c(O)c3c(c(O)c1C2=O)C[C@@](O)(C(=O)CO)C[C@@H]3O[C@H]1C[C@H](N)[C@H](O)[C@H](C)O1 ; CAL-148 cells; reported GRmax was 0.15

Next:
Test item CC(=O)O[C@H]1C(=O)[C@@]2(C)[C@H]([C@H](OC(=O)c3ccccc3)[C@]3(O)C[C@H](OC(=O)[C@H](O)[C@@H](NC(=O)c4ccccc4)c4ccccc4)C(C)=C1C3(C)C)[C@]1(OC(C)=O)CO[C@@H]1C[C@@H]2O ; CAL-148 cells; reported GRmax was 0.51

Test item CC(C)C[C@H](NC(=O)CNC(=O)c1cc(Cl)ccc1Cl)B1OC(=O)C(CC(=O)O)(CC(=O)O)O1 ; CAL-148 cells; reported GRmax was 0.40

Test item N.N.O=C([O-])C1(C(=O)[O-])CCC1.[Pt+2] ; CAL-148 cells; reported GRmax was 0.03

Test item CC(C)C[C@H](NC(=O)[C@H](Cc1ccccc1)NC(=O)c1cnccn1)B(O)O ; CAL-148 cells; reported GRmax was 0.17

Test item CC(C)C[C@H](NC(=O)[C@@H](NC(=O)c1cccc(-c2ccccc2)n1)[C@@H](C)O)B(O)O ; CAL-148 cells; reported GRmax was 0.39

Test item O=[N+]([O-])c1ccc(S(=O)(=O)N2CCN(c3ccnc4cc(Cl)ccc34)CC2)c([N+](=O)[O-])c1 ; CAL-148 cells; reported GRmax was 0.95

Test item CCCc1ccc(OCC(=O)N(Cc2nc(-c3cccnc3)no2)C(C)C)cc1 ; CAL-148 cells; reported GRmax was 1.0

Test item CC1=C(O)C(=O)C=C2C1=CC=C1[C@@]2(C)CC[C@@]2(C)[C@@H]3C[C@](C)(C(=O)O)CC[C@]3(C)CC[C@]12C ; CAL-148 cells; reported GRmax was −0.84

Test item COc1cccc2c1C(=O)c1c(O)c3c(c(O)c1C2=O)C[C@@](O)(C(=O)CO)C[C@@H]3O[C@H]1C[C@H](N)[C@@H](O)[C@H](C)O1 [Epirubicin] ; CAL-148 cells; reported GRmax was 0.14

Test item CC(C)C[C@H](NC(=O)CNC(=O)c1cc(Cl)ccc1Cl)B(O)O ; CAL-148 cells; reported GRmax was 0.18

###

system: HCC38 cells; test: Resazurin-based cell viability assay, monotherapy drug screen; parameters: species or system human; scale not given here; conditions: HCC38; area under the dose response curve, 24 h
property measured: AUC
Lab note: write the figure by itself, no unit.

Example entries and their recorded answers appear below.
Test item CC(C)C[C@H](NC(=O)CNC(=O)c1cc(Cl)ccc1Cl)B1OC(=O)C(CC(=O)O)(CC(=O)O)O1 ; HCC38 cells; reported AUC was 0.59

Test item N.N.O=C([O-])C1(C(=O)[O-])CCC1.[Pt+2] ; HCC38 cells; reported AUC was 0.88

Test item CCCc1ccc(OCC(=O)N(Cc2nc(-c3cccnc3)no2)C(C)C)cc1 ; HCC38 cells; reported AUC was 1.0

Test item COc1cccc2c1C(=O)c1c(O)c3c(c(O)c1C2=O)C[C@@](O)(C(=O)CO)C[C@@H]3O[C@H]1C[C@H](N)[C@H](O)[C@H](C)O1 ; HCC38 cells; reported AUC was 0.83

Test item COC[C@H](NC(=O)c1cnc(C)s1)C(=O)N[C@@H](COC)C(=O)N[C@@H](Cc1ccccc1)C(=O)[C@@]1(C)CO1 ; HCC38 cells; reported AUC was 0.73

Test item O=[N+]([O-])c1ccc(S(=O)(=O)N2CCN(c3ccnc4cc(Cl)ccc34)CC2)c([N+](=O)[O-])c1 ; HCC38 cells; reported AUC was 1.0

Next:
Test item COc1cccc2c1C(=O)c1c(O)c3c(c(O)c1C2=O)C[C@@](O)(C(=O)CO)C[C@@H]3O[C@H]1C[C@H](N)[C@@H](O)[C@H](C)O1 [Epirubicin] ; HCC38 cells; reported AUC was 0.81
